ASSAY_COMMENT: Acute toxicity in mice
EXPERIMENTAL_PARAMETERS: mouse, in vivo, po, observation period 14 days
REPORTED_METRIC: LD50 at 336 h (mg/kg)
Field: numeric (mg/kg). Do not append units.

Recorded LD50 at 336 h of COc1ccc(CCN(C)CCCN2CCc3cc(OC)c(OC)cc3CC2=O)cc1OC.Cl.Cl , please. 1350

###

Quick reference for Reduction in Heart Rate (20 Minutes) After Application of the Compound among some compounds
Test system: rats
ASSAY_COMMENT: Effect on heart rate in rats
Assay type: in vivo, rat
EXPERIMENTAL_PARAMETERS: anesthetized rats, 5.0 mg/kg i.v.
Where a name gives a salt, the structure may show the parent alone.
Please give a number only; it is taken to be in Beats/Minutes.

The examples below pair each entry with its known result.
1) COc1ccc(CCN(C)CCCN2CCc3cc(OC)c(OC)cc3C(O)C2=O)cc1OC (stereo not shown); -117
2) COc1cc(CCCCCN(C)CCCN2CCc3cc(OC)c(OC)cc3CC2=O)cc(OC)c1; -18
3) COc1ccc(CCN(C)CCCN2CCc3cc(OC)c(OC)cc3CC2=S)cc1OC; -255
4) COc1ccc(CCCN(C)CCCN2CCc3cc(OC)c(OC)cc3CC2=O)cc1OC.Cl; -183

Value wanted: Reduction in Heart Rate (20 Minutes) After Application of the Compound (rats) of entry COc1cc2c(cc1OC)CC(=O)N(CCCN(C)CCCc1cc(Cl)c(N)c(Cl)c1)CC2 -175

rats / Reduction in Heart Rate (20 Minutes) After Application of the Compound / COc1cc2c(cc1OC)CC(=O)N(CCCN(C)CCCCc1ccc(N(C)C)cc1)CC2 [Q, hydrobromide] : value? -123

Form: Entry = COc1ccc(C(O)CN(C)CCCN2CCc3cc(OC)c(OC)cc3CC2=O)cc1OC (stereo not shown) | System = rats | Reduction in Heart Rate (20 Minutes) After Application of the Compound = ____ -173

# value lookup — system rats, readout Reduction in Heart Rate (20 Minutes) After Application of the Compound, item COc1ccc(CCN(C)CCCN2CCCc3cc(OC)c(OC)cc3C2=O)cc1OC [U, hydrochloride, reference compound] -18

Value wanted: Reduction in Heart Rate (20 Minutes) After Application of the Compound (rats) of entry COc1cc2c(cc1OC)CC(=O)N(CCCN(C)CCc1ccc(N)c([N+](=O)[O-])c1)CC2 [P, hydrochloride] -130

Item: COc1cc2c(cc1OC)CC(=O)N(CCCN(C)CCc1ccccc1)CC2.Cl.Cl Test system: rats Read-out: Reduction in Heart Rate (20 Minutes) After Application of the Compound Value: ? -135

###

ASSAY_COMMENT: Acute toxicity in mice
EXPERIMENTAL_PARAMETERS: mouse, in vivo, iv, observation period 14 days
REPORTED_METRIC: LD50 at 336 h
Show the value, then the unit it is measured in.

Sample COc1ccc(CCN(C)CCCN2CCc3cc(OC)c(OC)cc3CC2=O)cc1OC.Cl.Cl — what was its LD50 at 336 h? 89 mg/kg
